Assay Comment: Drug-induced cytotoxicity in uninfected cell monolayers
Format: cell-based
Assay Context: uninfected cells, not cytotoxic at concentrations up to 100 µg/ml, read-out: concentration at which cytotoxicity occurs
Property Measured: MCC

Name the recorded MCC of the compound listed here: Nc1nc2c(ncn2OC[C@@H](O)CO)c(=O)[nH]1 [Preparation Example, (S)-9-(2,3-Dihydroxyprop-1-oxy)quanine]
> 100 µg/mL
